# System: GH3-TRE-Luc cell line
# reported.conditions: read-out: AC50 (uM) modified / 1000; Tox21_110001=Tox21_111571; viability, 1 nM T3 present, 24 h
endpoint.label: CC50 (µM)
Please give a number only; it is taken to be in µM.

Output measured CC50 for this item: N=c1ccn2c(n1)O[C@H]1[C@H](O)[C@@H](CO)O[C@H]12 1.18

###

# experiment.description: in vitro
# reported.conditions: rat, gh3-tre-luc cells, AC50 (uM) modified / 1000, Tox21_110001=Tox21_202175; viability, 1 nM T3 present, 24 h
endpoint.label: CC50 at 24 h

Output measured CC50 at 24 h for this item: Nc1ccccc1C(=O)OCCc1ccccc1 [Phenethyl anthranilate] > 90 µM
